Tested on: MS2 coat protein
Test Method Notes: apparent KD of MS2 coat protein; designed switch direction (-1 OFF switch, 1 ON switch): -1; higher = weaker reporter binding
Assay Context: Eterna round: R95; input ligand: FMN 200 uM
Criterion: apparent KD of MS2 coat protein meeting or surpassing 30 nM. Met: true (1). Not met: false (0).

Look over these answered cases.
Residue String	Discrete Label
GAAAAGGUAGGAUAUCGAGACCAUAACAUGAGGAUCACCCAUGUGAUACCUACAGUGGUCCGAGAAGGACCAUAUA [Iserdianqu] (puzzle: Exclusion 5)	true (1)
GAUUAUGCGAGCUUUAGGGACAUGAGGAUCACCCAUGUUCGUCUUAUUGGUCUAGGUACACUGACAUACCUAAAUCU [JMF 68] (puzzle: Sensor v3, turn-off variant 1)	false (0)

query: Could you tell me if the measured apparent KD of MS2 coat protein of CUCCUCAUGACGCCUAAACACAUGAGGAUCACCCAUGUACAGGCUUUUUGUCGUCUUAUAAUAAAACCGAGGAUACG [Orlaorusti] (puzzle: Sensor v3, turn-off variant 1) reaches 30 nM or more?
result: false (0)

query: Could you tell me if the measured apparent KD of MS2 coat protein of GAUUAUGCGAGCUUUAGGGACAUGAGGAUCACCCAUGUUCGUCUUGUUGAUCUAGGUGCGCUAACAUACCUAAAUCU [JMF 48] (puzzle: Sensor v3, turn-off variant 1) reaches 30 nM or more?
result: false (0)

query: Could you tell me if the measured apparent KD of MS2 coat protein of AGAUGUAGAUACCGAUCCUACAUGAGGAUCACCCAUGUAGCUAGACGUGCUCGCGUCGCUCGUCAGACUACCAGUAG [salish99_TOv1_r3_089] (puzzle: Sensor v3, turn-off variant 1) reaches 30 nM or more?
result: true (1)

====

Test system: MS2 coat protein
Test Method Notes: apparent KD of MS2 coat protein; designed switch direction (-1 OFF switch, 1 ON switch): 1; higher = weaker reporter binding
Assay Context: input ligand: microRNA oligo, concentration not stated
Experimental Endpoint: apparent KD of MS2 coat protein (nM)
State the answer as a number, implicitly in nM.

Residue String	Assay Value
AUUUCUAGCAUAGGAUAUCAUGCGAAAAUUGCGUGAGAAGGGUGGACGCUGUCAUUCACGGAAGACAUGAGGAUCACCCAUGUC [SameState NG1 #75] (Eterna round: R96, puzzle: Same State NG 1)	67.6
AUUACGAGCGUAGGAUAUGGGAAAGGAAGUGUACCAGAAGGACGAAUACAGCGUCCGGACAUGAGGAUCACCCAUGUAGGACGC [PowerStrip SSNG 1.19] (Eterna round: R96, puzzle: Same State NG 1)	21.8
GGAAUAUGAUGUUACAUGAGGAUCACCCAUGUAGUAAUAACUAAGGAUAUCUGAAAAGGAGGAGAAGAGAAGGUAGGAUCAUAA [AK SSNG3-V2-10.1] (Eterna round: R96, puzzle: Same State NG 3)	22.5
CUGAAAUGUCAAGGAUAUCACGUCGAUUAGACGUGAGAAGGUGAUCUGCACAUGAGGAUCACCCAUGUGUUACAUGGAAAUCAG [Brourd's SSNG1/1-A2 mod 14] (Eterna round: R96, puzzle: Same State NG 1)	581

query: So what does the record say about apparent KD of MS2 coat protein for CGUCGUUUGAUAGGAUAUCGCUUUACAUGAGGAUCACCCAUGUUUCCCACGCUGGUUUUUCUUUCCGAGAAGGAUUCUGAUGUU [salish99_SSNG02_r04_029] (Eterna round: R96, puzzle: Same State NG 2) ?
result: 31.4

query: So what does the record say about apparent KD of MS2 coat protein for GUUACAUGAGGAUCACCCAUGUAUGUGUGGGAGUAAGUGUCUUAGGAUAUCUAUCAUUUAAUUAAAGAGAAGGAAGAUUGUUGU [JMF's solution 98] (Eterna round: R96, puzzle: Same State NG 3) ?
result: 87.3

query: So what does the record say about apparent KD of MS2 coat protein for GGUAGGUUACUACCAAACAUGAGGAUCACCCAUGUAAAUGGGAAGGAUAUGGUACCUAUUUGGUACCAGAAGGUCCAAUUAAUU [JL Fiskers NG3ss - 2 mod 2] (Eterna round: R96, puzzle: Same State NG 3) ?
result: 1720

query: So what does the record say about apparent KD of MS2 coat protein for UGGCUGGUGCUAGGAUAUGCAUGAGGAAUCCUCGUAGAAGGAGCACGACAUGAGGAUCACCCAUGUAGCCGUCCGUAGACGGCU [salish99_SSNG1_r04_009] (Eterna round: R96, puzzle: Same State NG 1) ?
result: 26.3
